These entries and their values trace back to patent US20140148412A1.

- TARGET OR SYSTEM: GABAA receptors (rat cerebral cortex P2 homogenate)
- TEST PROTOCOL: [35S]TBPS binding assay
- MEASUREMENT CONDITIONS: inhibition of [35S]TBPS binding
METRIC: IC50

Task: Recorded IC50 for C[C@@]1(O)CC[C@@]2(C)[C@@H](CC[C@@H]3[C@@H]2CC[C@]2(C)[C@@H](c4cn5ccccc5n4)CC[C@@H]32)C1 , please?
Output: 1 µM
